target: μ-opioid receptor (Homo sapiens (Human), UniProt P35372); test: μ-opioid receptor [35S]GTPγS functional assay, U-2 OS cells; assay type: biochemical
quantity name: pEC50
Please express pEC50 as -log10 of the molar concentration.

                                   molecule                             target_entity  recorded_value
0  CN1CC[C@]23Cc4[nH]c(=O)c(C(=O)N[C@@H](Cc5ccccc5)C(N)=O)cc4C[C@@]2(O)[C@H]1Cc1ccc(O)cc13 [Compound 51]  μ-opioid receptor (Homo sapiens (Human), UniProt P35372)            6.90
1  CN1CC[C@]23Cc4[nH]c(=O)c(C(=O)N5CCCC5)cc4C[C@@]2(O)[C@H]1Cc1ccc(O)cc13 [Compound 48]  μ-opioid receptor (Homo sapiens (Human), UniProt P35372)            7.01
2  C[C@H](NC(=O)c1cc2c([nH]c1=O)C[C@]13CCN(C)[C@H](Cc4ccc(O)cc41)[C@]3(O)C2)C(N)=O [Compound 50]  μ-opioid receptor (Homo sapiens (Human), UniProt P35372)            6.69
3  COc1ccc2c(c1)[C@]13CCN(C)[C@H](C2)[C@]1(O)Cc1cc(C(=O)O)c(=O)[nH]c1C3 [Compound 40]  μ-opioid receptor (Homo sapiens (Human), UniProt P35372)            4.86

Note: attention shifts to another entry.
input: Consider the molecule CN1CC[C@]23Cc4c(cc(C(N)=O)c(=O)n4C)C[C@@]2(O)[C@H]1Cc1ccc(O)cc13 [Compound 39] and give its measured pEC50.
output: 6.78

---

biological target: UniProt:P41145; assay: κ-opioid receptor [35S]GTPγS functional assay, U-2 OS cells; assay type: biochemical; conditions: relative to U69,593; U-2 OS cells
Listing: Emax of selected compounds
Answer in %, number only, no unit symbol.

Recorded results for 2 compounds are shown here.
>>> print(df.to_string())
                                     smiles  quantity_name  value_units  recorded_value
0  O=C(c1cc2c([nH]c1=O)C[C@]13CCN(CC4CC4)[C@H](Cc4ccc(O)cc41)[C@@H]3C2)N1CCCC1           Emax            %              86
1  C[C@H](NC(=O)c1cc2c([nH]c1=O)C[C@]13CCN(C)[C@H](Cc4ccc(O)cc41)[C@]3(O)C2)C(N)=O           Emax            %              54

input: Consider the compound CC(C)C[C@H](NC(=O)c1cc2c([nH]c1=O)C[C@]13CCN(C)[C@H](Cc4ccc(O)cc41)[C@]3(O)C2)C(N)=O and give its measured Emax.
output: 28.8

---

Listing: Ki of selected molecules
target: ORL-1 receptor (Homo sapiens (Human)); assay: ORL-1 receptor radioligand binding assay ([3H]-nociceptin); conditions: binding affinity, [3H]-nociceptin displacement
Answer in nM, number only, no unit symbol.

input: Consider the molecule O=C(O)c1cc2c([nH]c1=O)C[C@]13CCN(CC4CC4)[C@H](Cc4ccc(O)cc41)[C@@H]3C2 and give its measured Ki.
output: 4.91

input: Consider the molecule O=C(O)c1cc2c([nH]c1=O)C[C@]13CCN(CC4CC4)[C@H](Cc4ccc(O)cc41)[C@]3(O)C2 and give its measured Ki.
output: 2320

input: Consider the molecule C[C@H](NC(=O)c1cc2c([nH]c1=O)C[C@]13CCN(CC4CC4)[C@H](Cc4ccc(O)cc41)[C@@H]3C2)C(N)=O and give its measured Ki.
output: 1.2

input: Consider the molecule NC(=O)CNC(=O)c1cc2c([nH]c1=O)C[C@]13CCN(CC4CC4)[C@H](Cc4ccc(O)cc41)[C@@H]3C2 and give its measured Ki.
output: 2.04

input: Consider the molecule NC(=O)c1cc2c([nH]c1=O)C[C@]13CCN(CC4CC4)[C@H](Cc4ccc(O)cc41)[C@]3(O)C2 and give its measured Ki.
output: 1330
